Cited source: patent US20070078124A1

Listed compounds paired with reported Ki
# TESTED_ON: UniProt:P28335
# PROTOCOL_NOTES: radioligand ([3H]mesulergine) competitive binding assay for 5-HT2C receptor
# RUN_PARAMETERS: choroid plexus or recombinant 5-HT2C receptor expressed in CHO-K1 cells, read-out: binding affinity to 5-HT2C serotonin receptor, Ki value
MEASUREMENT_TYPE: Ki

>>> result_value("CN(C)CCCOCc1onc2c1-c1ccccc1Sc1ccccc1-2 [Compound 7]")
"< 100 nM"
>>> result_value("Cc1onc2c1-c1ccccc1Sc1ccccc1-2 [Compound 1]")
"< 100 nM"

* * *

# TESTED_ON: 5-HT2A receptor (Homo sapiens)
# Sequence (P28223 whole entry): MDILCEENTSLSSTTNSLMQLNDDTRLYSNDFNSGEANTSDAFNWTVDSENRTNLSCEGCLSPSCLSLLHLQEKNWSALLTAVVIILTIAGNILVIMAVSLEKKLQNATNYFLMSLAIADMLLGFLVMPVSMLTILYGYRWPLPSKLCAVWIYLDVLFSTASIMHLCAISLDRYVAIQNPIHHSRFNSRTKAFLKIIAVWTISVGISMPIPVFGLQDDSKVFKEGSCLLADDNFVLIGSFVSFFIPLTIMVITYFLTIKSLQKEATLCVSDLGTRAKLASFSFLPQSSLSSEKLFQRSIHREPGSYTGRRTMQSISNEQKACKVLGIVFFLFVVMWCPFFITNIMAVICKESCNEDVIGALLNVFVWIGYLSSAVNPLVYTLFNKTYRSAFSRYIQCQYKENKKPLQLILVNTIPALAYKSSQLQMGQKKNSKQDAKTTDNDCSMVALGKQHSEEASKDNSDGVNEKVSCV
# PROTOCOL_NOTES: radioligand ([3H]-ketanserin) competitive binding assay for 5-HT2A receptor
# RUN_PARAMETERS: human cortex or recombinant 5-HT2A receptor expressed in CHO-K1, read-out: binding affinity to 5-HT2A serotonin receptor expressed as IC50 value
MEASUREMENT_TYPE: IC50

>>> result_value("Cc1onc2c1-c1ccccc1Sc1ccccc1-2 [Compound 1]")
"< 200 nM"
>>> result_value("CN(C)CCCOCc1onc2c1-c1ccccc1Sc1ccccc1-2 [Compound 7]")
"< 200 nM"

* * *

# TESTED_ON: 5-HT2C receptor (Homo sapiens, UniProt P28335)
# Construct: expressed in transfected cells; host or cells: CHO-K1 (or COS-7)
# Sequence (P28335 33-458): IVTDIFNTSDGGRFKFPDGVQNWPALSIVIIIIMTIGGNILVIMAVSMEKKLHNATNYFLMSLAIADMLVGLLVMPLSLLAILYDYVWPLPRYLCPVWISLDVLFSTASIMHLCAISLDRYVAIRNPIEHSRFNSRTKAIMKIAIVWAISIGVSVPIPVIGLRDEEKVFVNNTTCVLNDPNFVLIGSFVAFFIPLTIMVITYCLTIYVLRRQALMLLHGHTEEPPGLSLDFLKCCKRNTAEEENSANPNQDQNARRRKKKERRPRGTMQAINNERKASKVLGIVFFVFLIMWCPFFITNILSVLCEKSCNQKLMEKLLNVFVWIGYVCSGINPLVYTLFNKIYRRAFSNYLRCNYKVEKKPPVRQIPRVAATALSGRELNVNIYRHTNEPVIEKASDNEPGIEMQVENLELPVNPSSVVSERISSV
# PROTOCOL_NOTES: radioligand ([3H]mesulergine) competitive binding assay for 5-HT2C receptor
# RUN_PARAMETERS: choroid plexus or recombinant 5-HT2C receptor expressed in CHO-K1 cells, read-out: binding affinity to 5-HT2C serotonin receptor expressed as IC50 value
Listed compounds paired with reported IC50
MEASUREMENT_TYPE: IC50

>>> result_value("Cc1onc2c1-c1ccccc1Sc1ccccc1-2")
"< 200 nM"
>>> result_value("CN(C)CCCOCc1onc2c1-c1ccccc1Sc1ccccc1-2")
"< 200 nM"
